test system: Yersinia pseudotuberculosis; assay: growth AUC normalised to DMSO control (fraction of control); higher = less growth inhibition, active = hit call of the paper; settings: 20 µM
assay_readout: growth AUC normalised to DMSO control

compound | assayed_system | assay_readout | endpoint_value
Nc1nc(=S)c2ncn([C@@H]3O[C@H](CO)[C@@H](O)[C@H]3O)c2[nH]1 [Thioguanosine] | Yersinia pseudotuberculosis | growth AUC normalised to DMSO control | 0.826
C[N+](C)(C)CCCCCC[N+](C)(C)C [Hexamethonium dibromide dihydrate] | Yersinia pseudotuberculosis | growth AUC normalised to DMSO control | 0.966
CO[C@H]1/C=C/O[C@@]2(C)Oc3c(C)c(O)c4c(O)c(c(/C=N/N5CCN(C)CC5)c(O)c4c3C2=O)NC(=O)/C(C)=C\C=C\[C@H](C)[C@H](O)[C@@H](C)[C@@H](O)[C@@H](C)[C@H](OC(C)=O)[C@@H]1C [Rifampicin] | Yersinia pseudotuberculosis | growth AUC normalised to DMSO control | 0.0362

====

Measured growth AUC normalised to DMSO control by item
system: S. enterica typhimurium WT; assay: growth AUC normalised to DMSO control (median) (fraction of control); higher = less growth inhibition, active = hit call of the paper; settings: 20 µM;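 also: active when median AUC fell below 0.1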
Structures can show the parent of a compound that is named as a salt.
assay_readout: growth AUC normalised to DMSO control

compound | assayed_system | endpoint_value
CNNCc1ccc(C(=O)NC(C)C)cc1 [Procarbazine hydrochloride] | S. enterica typhimurium WT | 1.01
Cc1c(NC(=O)c2cccnc2)c(=O)n(-c2ccccc2)n1C | S. enterica typhimurium WT | 1.01
COc1ccc2cc([C@@H](C)C(=O)O)ccc2c1 [(R) Naproxen sodium salt] | S. enterica typhimurium WT | 1
CCCCNc1cc(C(=O)O)cc(S(N)(=O)=O)c1Oc1ccccc1 [Bumetanide] | S. enterica typhimurium WT | 0.996
CN(C)c1cc(NC(=O)CNC(C)(C)C)c(O)c2c1C[C@H]1C[C@H]3[C@H](N(C)C)C(=O)C(C(N)=O)=C(O)[C@@]3(O)C(=O)C1=C2O | S. enterica typhimurium WT | 0.995
NC1CCN(c2nc3c(cc2F)c(=O)c(C(=O)O)cn3-c2ccc(F)cc2F)C1 (stereo not drawn) [Tosufloxacin hydrochloride] | S. enterica typhimurium WT | 0.00524
CN(CCOc1ccc(CC2SC(=O)NC2=O)cc1)c1ccccn1 (stereo not drawn) [Rosiglitazone hydrochloride] | S. enterica typhimurium WT | 1.02
Cc1cc(O)c(C(=O)N[C@@H](C(=O)N[C@@H]2C(=O)N3C(C(=O)O)=C(CSc4nnnn4C)CS[C@H]23)c2ccc(O)cc2)cn1 [Cefpiramide] | S. enterica typhimurium WT | 0.121
C[C@H]1C[C@H]2[C@@H]3CCC4=CC(=O)C=C[C@]4(C)[C@@]3(F)[C@@H](O)C[C@]2(C)[C@@]1(O)C(=O)CO | S. enterica typhimurium WT | 1
Nc1ccc(S(=O)(=O)Nc2ccccn2)cc1 | S. enterica typhimurium WT | 0.998
C[C@H](O)C(=O)Nc1c(I)c(C(=O)NC(CO)CO)c(I)c(C(=O)NC(CO)CO)c1I | S. enterica typhimurium WT | 1.01
CC(C)CN(C[C@@H](O)[C@H](Cc1ccccc1)NC(=O)O[C@H]1CCOC1)S(=O)(=O)c1ccc(N)cc1 | S. enterica typhimurium WT | 0.995
Cc1cnc(NC(=O)C2=C(O)c3ccccc3S(=O)(=O)N2C)s1 | S. enterica typhimurium WT | 0.994
CCc1cccc(CC)c1NC(=O)CN(CC(=O)O)CC(=O)O | S. enterica typhimurium WT | 1
CC(C)NCC(O)COc1cccc2[nH]ccc12 (stereo not drawn) | S. enterica typhimurium WT | 1
CC(=O)OC(C)C[N+](C)(C)C (stereo not drawn) [Methacholine chloride] | S. enterica typhimurium WT | 0.991
COc1ccc(NS(=O)(=O)c2ccc(N)cc2)nn1 | S. enterica typhimurium WT | 1.01
CC1c2cccc(O)c2C(O)=C2C(=O)C3(O)C(O)=C(C(N)=O)C(=O)C(N(C)C)C3C(O)C21 (stereo not drawn) [Doxycycline hydrochloride] | S. enterica typhimurium WT | 0.00375
CNCCC=C1c2ccccc2CCc2ccccc21 [Nortriptyline hydrochloride] | S. enterica typhimurium WT | 1
OCCN(CCO)c1nc(N2CCCCC2)c2nc(N(CCO)CCO)nc(N3CCCCC3)c2n1 | S. enterica typhimurium WT | 1.02
O=C(CCCN1CCC(O)(c2ccc(Br)cc2)CC1)c1ccc(F)cc1 | S. enterica typhimurium WT | 0.998
CCCN(CCC)CCc1cccc2c1CC(=O)N2 [Ropinirole hydrochloride] | S. enterica typhimurium WT | 1
CC=C(C)C(=O)OC1C(OC(C)=O)C2(CO)C(O)CC3(C)C(=CCC4C5(C)CCC(OC6OC(C(=O)O)C(OC7OC(CO)C(O)C(O)C7O)C(O)C6OC6OC(CO)C(O)C(O)C6O)C(C)(CO)C5CCC43C)C2CC1(C)C (stereo not drawn) | S. enterica typhimurium WT | 0.977
N[C@@H](CSCCCO)C(=O)O | S. enterica typhimurium WT | 0.996
CCOc1ccc2nc(S(N)(=O)=O)sc2c1 [Ethoxzolamide] | S. enterica typhimurium WT | 0.997
CN1CCCCC1CCN1c2ccccc2Sc2ccc([S+](C)[O-])cc21 (stereo not drawn) [Mesoridazine besylate] | S. enterica typhimurium WT | 0.997
Nc1nc(NC2CC2)c2ncn([C@H]3C=C[C@@H](CO)C3)c2n1 [Abacavir sulfate] | S. enterica typhimurium WT | 1.01
Cc1c(C(=O)NN2CCCCC2)nn(-c2ccc(Cl)cc2Cl)c1-c1ccc(Cl)cc1 | S. enterica typhimurium WT | 1
O=C(Oc1cccc2cccnc12)c1ccccc1 | S. enterica typhimurium WT | 0.994
Cc1nc2ccccn2c(=O)c1CCN1CCC(C(=O)c2ccc(F)cc2)CC1 | S. enterica typhimurium WT | 1.01
CC(=O)N1CCN(c2ccc(OCC3COC(Cn4ccnc4)(c4ccc(Cl)cc4Cl)O3)cc2)CC1 (stereo not drawn) | S. enterica typhimurium WT | 0.998
CN1CCN(C2=Nc3cc(Cl)ccc3Nc3ccccc32)CC1 | S. enterica typhimurium WT | 1
N=C(N)N1CCc2ccccc2C1 [Debrisoquin sulfate] | S. enterica typhimurium WT | 1

====

test system: Shigella flexneri; assay: growth AUC normalised to DMSO control (fraction of control); higher = less growth inhibition, active = hit call of the paper; conditions: 20 µM
Counter-ions that a name gives are not always drawn.
Tick class 1 if growth AUC normalised to DMSO control is 1 or greater. Tick class 0 if growth AUC normalised to DMSO control is less than 1.

compound | qualitative_label
COc1ccc2c(c1)N(C[C@H](C)CN(C)C)c1ccccc1S2 [Methotrimeprazine maleate salt] | class 1
CCc1cc(C(N)=S)ccn1 [Ethionamide] | class 0
COc1ccc2c3c1O[C@H]1C[C@@H](O)C=C[C@@]31CCN(C)C2 [Galanthamine hydrobromide] | class 0
CCn1cc(C(=O)O)c(=O)c2cc(F)c(N3CCN(C)CC3)cc21 | class 0

====

system: Vibrio cholerae; experiment: growth AUC normalised to DMSO control (fraction of control); higher = less growth inhibition, active = hit call of the paper; conditions: 20 µM
Where a name gives a salt, the structure may show the parent alone.
Outcome codes: active, inactive

compound | qualitative_label
NS(=O)(=O)c1cc2c(cc1Cl)N=CNS2(=O)=O [Chlorothiazide] | inactive
CC(C)NCC(O)c1ccc(O)c(O)c1 (single isomer, unassigned; (-)) [(-) Isoproterenol hydrochloride] | inactive
COc1cc(-c2ccc(=O)[nH]n2)ccc1OC(F)F | inactive
COc1c(O[C@@H]2O[C@H](CO)[C@@H](O)[C@H](O)[C@H]2O)cc2c(c1OC)-c1ccc(SC)c(=O)cc1[C@@H](NC(C)=O)CC2 [Thiocolchicoside] | inactive
COC(=O)C1=C(C)NC(C)=C(C(=O)OCCN(C)Cc2ccccc2)C1c1cccc([N+](=O)[O-])c1 (stereo not drawn) [Nicardipine hydrochloride] | inactive
C[C@]12CC[C@@H]3c4ccc(O)cc4C[C@@H](CCCCCCCCC[S+]([O-])CCCC(F)(F)C(F)(F)F)[C@H]3[C@@H]1CC[C@@H]2O (stereo partly drawn) | inactive
COc1ccc(CN(CCN(C)C)c2ccccn2)cc1 [Pyrilamine maleate] | inactive
NCc1ccc(S(N)(=O)=O)cc1 [Mafenide hydrochloride] | inactive
NCC[C@H](O)C(=O)N[C@@H]1C[C@H](N)[C@@H](O[C@H]2O[C@H](CN)[C@@H](O)[C@H](O)[C@H]2O)[C@H](O)[C@H]1O[C@H]1O[C@H](CO)[C@@H](O)[C@H](N)[C@H]1O [Amikacin hydrate] | inactive
CC1CCc2cc(F)cc3c(=O)c(C(=O)O)cn1c23 (stereo not drawn) | active
CC(C)(O/N=C(\C(=O)N[C@@H]1C(=O)N2C(C(=O)[O-])=C(C[n+]3ccccc3)CS[C@H]12)c1csc(N)n1)C(=O)O [Ceftazidime pentahydrate] | active
N#Cc1ccc(C(c2ccc(C#N)cc2)n2cncn2)cc1 | inactive
CC(=O)c1ccc2c(c1)N(CCCN1CCC(CCO)CC1)c1ccccc1S2 | inactive
CCOC(=O)[C@H](CCc1ccccc1)N[C@H]1CCc2ccccc2N(CC(=O)O)C1=O [Benazepril hydrochloride] | inactive
CCCCNC(=O)NS(=O)(=O)c1ccc(C)cc1 [Tolbutamide] | inactive
C=CCOc1ccccc1OCC(O)CNC(C)C (stereo not drawn) [Oxprenolol hydrochloride] | inactive
CC(=O)OC[C@H]1O[C@@H]([S-])[C@H](OC(C)=O)[C@@H](OC(C)=O)[C@@H]1OC(C)=O.CCP(CC)CC.[Au+] | active
CN1C(=O)CC(c2ccccc2)C1=O (stereo not drawn) [Phensuximide] | inactive
NCc1ccccc1CC(=O)N[C@@H]1C(=O)N2C(C(=O)O)=C(CSc3nnnn3CC(=O)O)CS[C@H]12 [Ceforanide] | active
NS(=O)(=O)c1cc(Cl)c(Cl)c(S(N)(=O)=O)c1 [Dichlorphenamide] | inactive
CCCc1nc2c(C)cc(-c3nc4ccccc4n3C)cc2n1Cc1ccc(-c2ccccc2C(=O)O)cc1 | inactive
Cc1cc(NS(=O)(=O)c2ccc(N)cc2)no1 | inactive
C[C@]12CC[C@@H]3c4ccc(O)cc4CC[C@H]3[C@@H]1C[C@@H](O)[C@@H]2O | inactive
CC(C)(C#N)c1cc(Cn2cncn2)cc(C(C)(C)C#N)c1 | inactive
CCCCC1C(=O)N(c2ccccc2)N(c2ccccc2)C1=O | inactive
OCc1cc(C(O)CNCCCCCCOCCCCc2ccccc2)ccc1O (stereo not drawn) | inactive
NC(=O)c1cnccn1 [Pyrazinamide] | inactive
CO/N=C(\C(=O)N[C@@H]1C(=O)N2C(C(=O)O)=C(COC(C)=O)CS[C@H]12)c1csc(N)n1 [Cefotaxime sodium salt] | active
N=c1nc(N2CCCCC2)cc(N)n1O | inactive
CCOc1ccc(NC(C)=O)cc1 | inactive
c1coc(CNc2ncnc3[nH]cnc23)c1 | inactive
NS(=O)(=O)c1cc(C(=O)O)c(NCc2ccco2)cc1Cl [Furosemide] | inactive
NC1CCN(c2nc3c(cc2F)c(=O)c(C(=O)O)cn3-c2ccc(F)cc2F)C1 (stereo not drawn) [Tosufloxacin hydrochloride] | active
